Numbers sourced from PubChem BioAssay (NCI).

Tested on: COLO 205 colon
Assay: NCI tumour cell line growth inhibition, 48 h
Parameter TGI: see the listing below.
Your answer should be a plain number; it is taken to be in µM.

Solved cases below.
# Compound, Value unit, TGI
rows = [
    ("O=C(O)c1cc2ccccc2c2c3c(ccc12)OCO3", "µM", 368),
    ("COc1ccc2c(c1)c1c(n2CCN2CCOCC2)-c2cccc(OC)c2CC1", "µM", 28.5),
    ("CCOC(=O)C(C)Sc1nnc(COc2ccc(Cl)cc2)n1-c1ccccc1 (stereo not given)", "µM", 33.2),
]

Next compound, TGI to be filled in.
input: Would you mind telling me what TGI value was observed for Cc1cccc(NC(=O)O/N=C(\Cl)C(C)C)c1 ?
output: 3.76
